- Test system: ASPC
- assay.procedure: MTS cell growth assay, gemcitabine +/- warfarin
- Format: cell-based, human
- run.parameters: Homo sapiens, 120 h; gemcitabine alone; 5 days, MTS; read-out: Gemcitabine (nmol/L) median IC50
quantity.kind: IC50 (nmol/L)
Number in nmol/L, nothing else.

Data request: Given Nc1ccn([C@@H]2O[C@H](CO)[C@@H](O)C2(F)F)c(=O)n1 , respond with its IC50.
Data returned: 16

###

- Test system: MiaShAxl
- assay.procedure: MTS cell growth assay, gemcitabine +/- warfarin
- Format: cell-based
- run.parameters: Homo sapiens, 120 h, gemcitabine alone, 5 days, read-out: Gemcitabine (nmol/L) median IC50
quantity.kind: pIC50
Scale explanation: pIC50 corresponds to minus log10 of a concentration expressed in moles per litre.

Data request: Given Nc1ccn([C@@H]2O[C@H](CO)[C@@H](O)C2(F)F)c(=O)n1 , respond with its pIC50.
Data returned: 7.68
